ASSAY SYSTEM: CYP2C9 (Homo sapiens, UniProt P11712)
Construct: from tissue; host or cells: human liver microsomes (pooled in the time-dependent assay)
Sequence (P11712 whole entry): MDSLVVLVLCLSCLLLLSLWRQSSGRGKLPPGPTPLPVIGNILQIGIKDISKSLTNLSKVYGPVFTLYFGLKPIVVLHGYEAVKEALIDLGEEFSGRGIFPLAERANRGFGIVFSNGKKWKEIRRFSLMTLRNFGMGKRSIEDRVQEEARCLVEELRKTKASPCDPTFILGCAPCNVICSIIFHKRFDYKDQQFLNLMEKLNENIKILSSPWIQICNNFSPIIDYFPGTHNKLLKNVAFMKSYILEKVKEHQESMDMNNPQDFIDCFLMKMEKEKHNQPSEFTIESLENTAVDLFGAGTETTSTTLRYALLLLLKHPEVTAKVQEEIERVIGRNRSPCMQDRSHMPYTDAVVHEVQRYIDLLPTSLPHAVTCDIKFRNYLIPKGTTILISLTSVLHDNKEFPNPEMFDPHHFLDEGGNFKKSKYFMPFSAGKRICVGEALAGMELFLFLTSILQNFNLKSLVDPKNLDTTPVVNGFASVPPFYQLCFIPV
ASSAY REMARKS: direct inhibition of CYP450 in human liver microsomes
Type: in vitro ADME
STATED CONDITIONS: estimated from 3, 10, 50 uM, read-out: CYP2C9 T0 estimated IC50
pIC50: −log10 of the molar value.
PARAMETER MEASURED: pIC50

# MOLECULE, ASSAY SYSTEM, RESULT
rows = [
    ("Cn1cncc1-c1ccnc(C(=O)Nc2ccc(C(C)(C)O)nc2)n1 [Compound 250]", "CYP2C9 (Homo sapiens, UniProt P11712)", "< 4.30"),
    ("[2H]c1nc([2H])n(-c2nc(C)cc(C(=O)N[C@H]3CC[C@H](OCCOC)CC3)n2)c1[2H] [Comparator Compound A, reference compound]", "CYP2C9 (Homo sapiens, UniProt P11712)", "> 4.30"),
    ("CC(C)(O)c1ccc(NC(=O)c2nccc(-n3ccnc3)n2)cn1 [Compound 249]", "CYP2C9 (Homo sapiens, UniProt P11712)", "< 4.30"),
    ("CO[C@H]1CC[C@H](NC(=O)c2cc(C3CCC(F)(F)CC3)nc(-c3cncn3C)n2)CC1 [Compound 289]", "CYP2C9 (Homo sapiens, UniProt P11712)", "> 4.30"),
    ("CO[C@H]1CC[C@H](NC(=O)c2nccc(-n3ccnc3)n2)CC1 [Compound 145]", "CYP2C9 (Homo sapiens, UniProt P11712)", "< 4.30"),
    ("CO[C@H]1CC[C@H](NC(=O)c2cc(C3(C)COC3)nc(-c3cncn3C)n2)CC1 [Compound 295]", "CYP2C9 (Homo sapiens, UniProt P11712)", "< 4.30"),
    ("Cn1cncc1-c1ccnc(C(=O)N[C@H]2CC[C@H](O)CC2)n1 [Compound 256]", "CYP2C9 (Homo sapiens, UniProt P11712)", "< 4.30"),
    ("CO[C@H]1CC[C@H](NC(=O)c2cc(C3CCOCC3)nc(-c3cncn3C)n2)CC1 [Compound 199]", "CYP2C9 (Homo sapiens, UniProt P11712)", "< 4.30"),
]

----------
ASSAY SYSTEM: mouse CD38 (Mus musculus)
Sequence (P56528 1-304): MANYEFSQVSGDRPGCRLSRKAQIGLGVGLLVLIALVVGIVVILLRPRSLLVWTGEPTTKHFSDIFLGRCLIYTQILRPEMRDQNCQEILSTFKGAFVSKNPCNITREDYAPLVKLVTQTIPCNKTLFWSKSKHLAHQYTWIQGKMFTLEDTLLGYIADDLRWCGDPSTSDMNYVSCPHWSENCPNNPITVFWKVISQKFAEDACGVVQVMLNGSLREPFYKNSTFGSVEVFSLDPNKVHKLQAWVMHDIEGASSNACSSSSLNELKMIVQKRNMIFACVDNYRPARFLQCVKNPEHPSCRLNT
ASSAY REMARKS: mouse recombinant CD38 enzyme assay (hydrolysis of NAD+)
STATED CONDITIONS: read-out: mCD38 BioChem IC50
pIC50: −log10 of the molar value.
PARAMETER MEASURED: pIC50

# MOL, ASSAY SYSTEM, RESULT NUMBER
measured = [
    ("O=C(N[C@H]1C[C@@H](c2ccnc(C(F)(F)F)c2)C1)c1nccc(-n2ccnc2)n1", "mouse CD38 (Mus musculus)", 6.38),
    ("COCCOc1cc(-c2cncn2C)nc(C(=O)Nc2ccc(C(F)(F)F)nc2)n1", "mouse CD38 (Mus musculus)", 8.96),
    ("Cn1cncc1-c1ccnc(C(=O)Nc2ccc(OC3CCC(F)(F)CC3)nc2)n1", "mouse CD38 (Mus musculus)", 8.01),
    ("COCCO[C@H]1CC[C@H](NC(=O)c2ccc(F)c(-n3ccnc3)n2)CC1", "mouse CD38 (Mus musculus)", 7.42),
    ("O=C(Nc1ccc(C(F)F)nc1)c1ccnc(-c2cncs2)n1", "mouse CD38 (Mus musculus)", 6.82),
    ("COCCO[C@H]1CC[C@H](NC(=O)c2cc(C(F)(F)F)nc(-c3cncn3C)n2)CC1", "mouse CD38 (Mus musculus)", 9.00),
    ("O=C(Nc1ccc(OC(F)F)nc1)c1nccc(-n2ccnc2)n1", "mouse CD38 (Mus musculus)", 7.77),
    ("COc1cc(-c2cncn2C)nc(C(=O)Nc2ccc(C(F)F)nc2)n1", "mouse CD38 (Mus musculus)", 8.89),
    ("CO[C@H]1CC[C@H](NC(=O)c2nc(C)cc(-c3cncn3C)n2)CC1", "mouse CD38 (Mus musculus)", 8.35),
    ("CO[C@H]1CC[C@H](NC(=O)c2nc(C(F)F)cc(-n3ccnc3)n2)CC1", "mouse CD38 (Mus musculus)", 7.52),
    ("Cn1cncc1-c1ccnc(C(=O)N[C@H]2C[C@H](c3ccnc(C(F)(F)F)c3)C2)n1", "mouse CD38 (Mus musculus)", 7.36),
    ("O=C(Nc1ccc(C(F)F)nc1)c1cc(C2CC2)nc(-n2ccnc2)n1", "mouse CD38 (Mus musculus)", 9.00),
    ("O=C(Nc1cncc(F)c1)c1cc(-n2ccnc2)ccn1", "mouse CD38 (Mus musculus)", 6.63),
    ("COCCOc1cc(C(=O)Nc2ccc(C(F)F)nc2)nc(-c2cncn2C)n1", "mouse CD38 (Mus musculus)", 9.00),
    ("COCCO[C@H]1CC[C@H](NC(=O)c2nccc(-c3cncn3C)n2)CC1", "mouse CD38 (Mus musculus)", 7.46),
    ("Cn1cncc1-c1ncc(Cl)c(C(=O)N[C@H]2CC[C@H](OC(F)(F)F)CC2)n1", "mouse CD38 (Mus musculus)", 7.71),
    ("Cn1cncc1-c1nc(C(=O)N[C@@H]2C[C@@H]3[C@H](C2)C3(F)F)cc(C2CCOCC2)n1", "mouse CD38 (Mus musculus)", 8.49),
]
